For each record, write down the corresponding TGI.
system: HOP-92 NSCLC; experiment: NCI tumour cell line growth inhibition, 48 h

Record excerpt, results attached:
1) Cc1cc2occ(C)c(=O)c2c2c1OC(C)(C)S2 :: > 100 µM
2) CCOC(=O)/C=C(/CN1C(=O)c2ccccc2C1=O)c1ccccc1 :: > 100 µM
3) Cc1c(C(=O)CC(=O)C(=O)NC2C3CC4CC(C3)CC2C4)[n+](=O)c2ccccc2n1[O-] (stereo unspecified) :: > 100 µM

// for each compound in input: emit TGI
1. Nc1cc(CO)cc(Nc2c3ccccc3nc3occc23)c1
2. O=C(c1ccco1)N(C(=S)N1CCN(c2ccccc2)CC1)c1ccccc1
3. O=C(/C=C/c1ccc([N+](=O)[O-])o1)NNC(=O)c1cc2ccccc2cc1O
4. CC(=O)Nc1ccc(Nc2nc(=O)[nH]c(=O)[nH]2)cc1

> 100 µM
> 100 µM
> 100 µM
> 100 µM

// for each compound in input: emit TGI
1. c1cc2c(cnc3cscc32)s1
2. Cc1cc(O)cc(C)c1/C=C/c1cncc(C(=O)N(C)C)c1
3. Cn1cnc([N+](=O)[O-])c1Sc1ncnc2nc[nH]c12

> 100 µM
> 25 µM
> 100 µM

// for each compound in input: emit TGI
1. COc1ccc(CNc2nc3ccccc3nc2-c2cccs2)cc1
2. NNC(=O)c1ccccc1NC(=O)/C(=C/c1ccccc1)NC(=O)c1ccccc1
3. COc1ccc2c(C3(O)CCNCC3)c[nH]c2c1

> 100 µM
> 100 µM
> 100 µM

// for each compound in input: emit TGI
1. CCCN(CCCCC(NC(C)=O)C(=O)NCc1ccccc1)C(=O)NC (stereo unspecified)
2. CC1=C(N2CC2)C(=O)c2nc3n(c2C1=O)CCC3O (stereo unspecified)
3. CC[C@H]1C=CCC[C@@]2(C[C@@H]3CC[C@@H]4[C@H](C(=O)OCCCCCCCCCCCCCCCC(=O)N(CCCN)C[C@@H](O)CCN)[C@]5(CCC[C@@H](C)O5)NC(=[N+]34)N2)O1
4. c1c[nH]c(Cc2ncc(Cc3cnc[nH]3)[nH]2)n1

> 100 µM
5.72 µM
1.01 µM
> 100 µM
